Where do these numbers come from? They come from PubChem BioAssay (NCI).

# method.summary: NCI Yeast Anticancer Drug Screen. Data for the mec2-1 strain (AID 157)
# recorded.conditions: S. cerevisiae mec2-1 strain, at 50.0 µM, stronger effect = higher value
Compounds without any hit were thinned out: in the full panel of roughly 79,000, 15% have a hit.
# if value of growth inhibition reaches 90%, tag Y; if it stays below, tag N

molecule | classification
Clc1ccc([O][In]([O]c2ccc(Cl)cn2)[O]c2ccc(Cl)cn2)nc1 | N
CC(C)c1ccc(C2C3=C(N=C4SCC(=O)N42)C(=O)c2ccccc23)cc1 (stereo not given) | N
COC1OC2COC(c3ccccc3)OC2C(NC(=S)SCc2ccccc2)C1O (stereo not given) | Y
C/C(=N\NC(=O)N/N=C(\C)c1ccccn1)c1ccccn1 | N
CCCCCCCCCCCCCCCc1nc(SCC(=O)O)n[nH]1 | N
Cc1cc(C(O)(C(F)(F)F)C(F)(F)F)cc(C(O)(C(F)(F)F)C(F)(F)F)c1 | Y
CN(C)c1ccc(C(c2cc3c(cc2O)OCO3)N2CCCC2)cc1 (stereo not given) | Y
C/C=C/C=C1\C=Cc2c(C(=O)OC)coc(=O)c21 | Y

====

# method.summary: NCI Yeast Anticancer Drug Screen. Data for the cln2 rad14 strain (AID 165);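 note: 0% = growth equal to vehicle treated cultures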
# recorded.conditions: S. cerevisiae cln2 rad14 strain, at 5.0 µM (retest, dose inferred, filed as 0.5), stronger effect = higher value
This is part of a sample that, as a whole, favours compounds with a hit. Of some 79,000 tested, about 15% had one in any assay.
Property: growth inhibition; scope: individual molecules
test.readout: growth inhibition (%)

molecule | numeric.value
CC(C)(C)CC(C)(C)c1ccc(O)c(Cl)c1 | -6
O=C(N=Nc1c(O)[nH]c2ccccc12)C(O)(c1ccccc1)c1ccccc1 | 26
CN(C(=O)c1cccs1)C(=S)N1CCN(c2ccccc2)CC1 | -8
CC(=O)NNc1nc(C)c(C(=O)NNC(=O)C(=O)Nc2ccc(Cl)cc2Cl)s1 | -4
CC/C(=C(\CC)c1ccc(OCCN2CCOCC2)cc1)c1ccc(OCCN2CCOCC2)cc1 | 62
O=C(CCC(NC(=O)OCc1ccccc1)C(=O)OCc1ccccc1)NC(CSCc1ccccc1)C(=O)NCC(=O)Oc1c(Cl)c(Cl)c(Cl)c(Cl)c1Cl (stereo not given) | -7
COC(=O)c1c(/C(=N/Nc2ccc([N+](=O)[O-])cc2)[N+](=O)[O-])ssc1=N | 6
CN(C)CCCCN1c2ccccc2Sc2ccc(C(=O)c3ccccc3)cc21 | 2
CCCCCCSc1nn(CCC#N)c(=O)[nH]c1=O | 13
C#CC[N+](CC)(CC)CCNC(=O)CCCCCCCCCCCCCCC | 51
O=c1oc2ccccc2c(O)c1/C=N/C(=S)NCCc1ccccc1 | 26
O=C(O)c1nnsc1-c1ccc(-c2snnc2C(=O)O)cc1 | 21
[Cl-].[La+3].[O-]/N=C(\c1ccccc1)c1ccccn1.[O-]/N=C(\c1ccccc1)c1ccccn1.[O-]/N=C(\c1ccccc1)c1ccccn1 | 21
CCCCCOC(=O)C1C(=O)CC(c2ccccc2)C1c1ccccc1 (stereo not given) | 0
CC(C)C(OC(=O)c1ccc(NCC2=CC(=O)C=CC2=O)cc1)C(C)C | 21

====

# method.summary: NCI Yeast Anticancer Drug Screen. Data for the mec2-1 strain (AID 157)
# recorded.conditions: S. cerevisiae mec2-1 strain, at 5.0 µM (retest, dose inferred, filed as 0.5), stronger effect = higher value
The panel holds about 79,000 compounds, 15% with a hit somewhere; the sample as a whole holds those more often.

molecule | uom | growth inhibition
CCCCCCCOC(=O)c1cc2cc(C(CC)C(CC)c3ccc(O)cc3)ccc2oc1=O (stereo unspecified) | % | 37
OC1CCC(COC(c2ccccc2)(c2ccccc2)c2ccccc2)O1 (stereo unspecified) | % | 5
CCCCCCCCCCCC(O)=C1C(=O)CC(O)CC1=O (stereo unspecified) | % | 25
OCCCCCCCCCl | % | -6
CC(C)C(OC(=O)c1ccc(NCC2=CC(=O)C=CC2=O)cc1)C(C)C | % | 15
O/N=C1/C(=C/c2ccc3c(c2)OCO3)CCCC1C(NO)c1ccc2c(c1)OCO2 (stereo unspecified) | % | -2
Cc1cc(SCC(=O)c2ccc(Br)cc2)cc(C)[o+]1 | % | 4
COc1ccc(/C=C/c2ccnnc2)c(OC)c1OC | % | -3
NC(=S)N/N=C/c1cn(CCCl)c2ccccc12 | % | -49
O=[N+]([O-])c1cc(I)cc(/C=N/NS(=O)(=O)c2ccc(F)cc2)c1O | % | 12
CN(C)CCNc1ccc2nnn3c4ccc(O)cc4c(=O)c1c23 | % | -3
